# SYSTEM_UNDER_TEST: human LPA1 (Homo sapiens, UniProt Q92633)
# Construct: expressed in transfected cells; host or cells: CHO-K1
# Sequence (Q92633 whole entry): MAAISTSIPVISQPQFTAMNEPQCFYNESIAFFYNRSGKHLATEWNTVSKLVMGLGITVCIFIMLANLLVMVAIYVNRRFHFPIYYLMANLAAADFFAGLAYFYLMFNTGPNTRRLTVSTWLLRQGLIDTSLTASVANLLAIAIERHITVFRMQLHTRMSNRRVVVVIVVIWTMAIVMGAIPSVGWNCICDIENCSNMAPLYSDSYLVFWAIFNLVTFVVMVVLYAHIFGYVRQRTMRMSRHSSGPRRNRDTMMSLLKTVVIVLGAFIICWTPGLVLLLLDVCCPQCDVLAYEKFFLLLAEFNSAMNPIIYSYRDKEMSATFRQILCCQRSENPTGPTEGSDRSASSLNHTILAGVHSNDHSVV
# TEST: In vitro LPA1 functional antagonist assay (calcium mobilization, FLIPR)
# Format: cell-based
# APPLIED_CONDITIONS: Table B2; CHO-K1 cells overexpressing human LPA1, Oleoyl LPA challenge at EC80; read-out: IC50
Binary label based on IC50 with cut-off 10 nM: below gives 1, not below gives 0.

>>> df
                                   compound                         system_under_test  group_label
0  COc1cc(-c2ccc(NC3(C(=O)O)CCOCC3)cc2CCC2CCOC2)cc(OC)c1C (single isomer, unassigned) [Compound 185]  human LPA1 (Homo sapiens, UniProt Q92633)            1
1  COc1cc(OC)cc(-c2ccc(NCCC(=O)O)cc2COC2Cc3ccccc3C2)c1 [Compound 103]  human LPA1 (Homo sapiens, UniProt Q92633)            0
2  COc1cc(-c2ccc(NC3(C(=O)O)CCOCC3)cc2COC2CCCC2)c(C(F)F)c(OC)n1 [Compound 283]  human LPA1 (Homo sapiens, UniProt Q92633)            0
3  COc1cc(-c2ccc(OCCC(=O)O)cc2COC2Cc3ccccc3C2)cc(OC)c1C [Compound 105]  human LPA1 (Homo sapiens, UniProt Q92633)            0
4  COc1cc(-c2ccc(NC3(C(=O)O)CC3)cc2COC2Cc3ccccc3C2)cc(OC)c1C [Compound 109]  human LPA1 (Homo sapiens, UniProt Q92633)            1
5  COc1cc(-c2ccc(NC3(C(=O)O)CCOCC3)cc2COC2CC2)c(F)c(OC)c1C [Compound 256]  human LPA1 (Homo sapiens, UniProt Q92633)            0
6  CCOc1cccc(-c2ccc(NC3(C(=O)O)CCOCC3)cc2COC2CC2)c1C [Compound 355]  human LPA1 (Homo sapiens, UniProt Q92633)            1
7  COc1cc(-c2ccc(NCCC(=O)O)cc2COC2Cc3ccccc3C2)cc(OC)c1C [Compound 101]  human LPA1 (Homo sapiens, UniProt Q92633)            0

====

# SYSTEM_UNDER_TEST: human LPA1 (Homo sapiens)
# Construct: expressed in transfected cells; host or cells: CHO-K1
# TEST: In vitro LPA1 calcium flux antagonist assay - Bioduro protocol
# Assay type: cell-based
# APPLIED_CONDITIONS: Table B3; CHO-K1 cells overexpressing human LPA1 and G15a, LPA challenge at EC80; read-out: Activity (IC50 class)
# Method: In Vitro LPA1 Calcium Flux Antagonist Assay—Bioduro Protocol CHO-K1 cells overexpressing human LPA1 and G15a were seeded at a total volume of 20 μL (15000 cells/well) into Matrigel pre-coated 384-well plates (corning −3764) and incubated at 37° C. […] Calcium mobilization was measured on a FLIPR Tetra (MSD). […] Percentage inhibition is calculated using the following formula: % Inhibition=100%×(1−(mean RFU of test sample−mean RFU of DMSO)/(mean RFU of LPA control−mean RFU of DMSO)). […]
MEASURED_METRIC: IC50

>>> print(df.to_string())
                                    molecule     measurement
 0  CCOc1c(C)ncc(-c2ccc(NC3(C(=O)O)CCOCC3)cc2COC2CC2)c1C [Compound 408]  100 to 1000 nM
 1  CCOc1cncc(-c2ccc(NC3(C(=O)O)CCC(F)(F)CC3)cc2COC2CC2)c1C(F)F [Compound 406]        < 100 nM
 2  CCOc1cncc(-c2ccc(NC3(C(=O)O)CCOCC3)cc2COC2CC2)c1C(F)F [Compound 403]        < 100 nM
 3  COc1cc(-c2ccc(NC3(C(=O)O)CCOCC3)cc2COC2CCCC2)c(OC)c(OC)c1C [Compound 220]  100 to 1000 nM
 4  CCOc1cc(OC)cc(-c2ccc(NC3(C(=O)O)CCCCC3)cc2COC2CC2)c1F [Compound 357]        < 100 nM
 5  COc1cc(-c2ccc(C3(C(=O)O)CC3)cc2COC2Cc3ccccc3C2)cc(OC)c1C [Compound 118]        < 100 nM
 6  CCOc1cccc(-c2ccc(NC3(C(=O)O)CCOCC3)cc2COC2CCCC2)c1F [Compound 245]        < 100 nM
 7  CCOc1cc(OC)cc(-c2ccc(NC3(C(=O)O)CCOCC3)cc2COC2CCCC2)c1F [Compound 287]        < 100 nM
 8  CCOc1cc(OC)cc(-c2ccc(NC3(C(=O)O)CCOCC3)cc2COCC(C)C)c1F [Compound 395]        < 100 nM
 9  CCOc1cccc(-c2ccc(OC3(C(=O)O)CCC3)cc2COC2CC2)c1C(F)F [Compound 375]        < 100 nM
10  COCC(=O)N1CCC(Nc2cc(C)c(-c3cc(OC)cc(OC)c3)c(COC3CCCC3)c2)(C(=O)O)CC1 [Compound 176]  100 to 1000 nM
11  COC(=O)N1CC(Nc2ccc(-c3cc(OC)c(C)c(OC)c3C)c(COC3CCCC3)c2)(C(=O)O)C1 [Compound 195]       > 1000 nM
12  COC(=O)N1CC(Nc2ccc(-c3cc(OC)c(C)c(OC)c3)c(COC3CCCC3)c2)(C(=O)O)C1 [Compound 144]        < 100 nM
13  COc1cc(-c2ccc(NC3(C(=O)O)CCOCC3)cc2COC2CC2)c(C(F)F)c(OC)n1 [Compound 314]        < 100 nM
14  CCOc1cccc(-c2ccc(NC3(C(=O)O)CCOCC3)cc2COC2CC2)c1C(F)(F)F [Compound 358]        < 100 nM
15  COc1cc(OC)c(F)c(-c2ccc(NC3(C(=O)O)CCOCC3)cc2COC2CCCC2)c1 [Compound 226]        < 100 nM
